All values here come from PubChem BioAssay AID248.

Tested on: L1210 leukemia ip in BDF1 mice, survival T/C
Assay: NCI In Vivo Anticancer Drug Screen. Data for tumor model L1210 Leukemia (intraperitoneal) in B6D2F1 (BDF1) mice
Conditions: endpoint: mean survival time; dose: 200.0 mg/kg/injection; schedule: Q01DX001 (ip); vehicle: Klucel (hydroxypropylcellulose) (HPC); higher = longer survival
Toxic doses and inconclusive results are not listed.
Provide the reported T/C of each item.

## Task What value of T/C has been reported for the following molecule? "O=C1C(=C(C(F)(F)F)C(F)(F)F)CCc2ccccc21"
## Result 91 % of control

## Task What value of T/C has been reported for the following molecule? "Cc1cc(C2=CCCCC2)c2ccccc2c1C"
## Result 103 % of control

## Task What value of T/C has been reported for the following molecule? CC(CO)CCC(=O)C(C)C1C(=O)CC2CC3CC(O)CCC3(C)CC21C (centres undefined)
## Result 105 % of control

## Task What value of T/C has been reported for the following molecule? "O=C1OC(=O)c2cccc3cccc1c23"
## Result 94 % of control

## Task What value of T/C has been reported for the following molecule? CN1CC2(CCN(CC3COc4ccccc4O3)CC2)OC1=O (centres undefined)
## Result 117 % of control

## Task What value of T/C has been reported for the following molecule? "COC(=O)c1c(C(=O)O)coc1C(=O)N1CCCC1"
## Result 97 % of control

## Task What value of T/C has been reported for the following molecule? "COc1cc([N+](=O)[O-])ccc1NC(=O)OCC(Cl)(Cl)Cl"
## Result 100 % of control

## Task What value of T/C has been reported for the following molecule? "CCOC(=O)c1cnc(OCC)nc1Nc1ccccc1Br"
## Result 95 % of control

## Task What value of T/C has been reported for the following molecule? "COc1cc2cc(C)c(C)cc2cc1OC"
## Result 101 % of control

* * *

System: L1210 leukemia ip in BDF1 mice, survival T/C
Test: NCI In Vivo Anticancer Drug Screen. Data for tumor model L1210 Leukemia (intraperitoneal) in B6D2F1 (BDF1) mice
Settings: endpoint: mean survival time; dose: 20.0 mg/kg/injection; schedule: Q01DX001 (ip); vehicle: saline; higher = longer survival
Toxic doses and inconclusive results are not listed.
READOUT_KIND: T/C

## Task What value of T/C has been reported for the following compound? COc1cc2c(cc1OC)C(Cc1ccc(N)cc1)N(C)CC2 (centres undefined)
## Result 91 % of control

## Task What value of T/C has been reported for the following compound? CC(N)CCc1ccccc1 (centres undefined)
## Result 101 % of control

## Task What value of T/C has been reported for the following compound? "CC(C)C(=O)Nc1cccnc1"
## Result 103 % of control

## Task What value of T/C has been reported for the following compound? "COC(=O)C1=CN=NC1=[N+]=[N-]"
## Result 97 % of control

* * *

System: L1210 leukemia ip in BDF1 mice, survival T/C
Test: NCI In Vivo Anticancer Drug Screen. Data for tumor model L1210 Leukemia (intraperitoneal) in B6D2F1 (BDF1) mice
Settings: endpoint: mean survival time; dose: 100.0 mg/kg/injection; schedule: Q01DX009 (ip); vehicle: water; higher = longer survival
Inconclusive results and toxic doses are left out.
READOUT_KIND: T/C

## Task What value of T/C has been reported for the following molecule? CCNC(C)(C)C(SS)c1ccc(Br)cc1 (centres undefined)
## Result 101 % of control

## Task What value of T/C has been reported for the following molecule? CC1C/C(=C\NC(N)=O)C(=O)O1 (centres undefined)
## Result 96 % of control

## Task What value of T/C has been reported for the following molecule? "NC(=O)OCc1c(O)c2c(c(O)c1COC(N)=O)C(=O)C=CC2=O"
## Result 95 % of control

## Task What value of T/C has been reported for the following molecule? "CNCCN(C)CCN(C)Cc1ccc(OC)cc1"
## Result 100 % of control
